tested.target: Recombinant full length PARP2 protein (Homo sapiens, UniProt Q9UGN5)
Construct: Recombinant full length PARP2 protein
Sequence (Q9UGN5 whole entry): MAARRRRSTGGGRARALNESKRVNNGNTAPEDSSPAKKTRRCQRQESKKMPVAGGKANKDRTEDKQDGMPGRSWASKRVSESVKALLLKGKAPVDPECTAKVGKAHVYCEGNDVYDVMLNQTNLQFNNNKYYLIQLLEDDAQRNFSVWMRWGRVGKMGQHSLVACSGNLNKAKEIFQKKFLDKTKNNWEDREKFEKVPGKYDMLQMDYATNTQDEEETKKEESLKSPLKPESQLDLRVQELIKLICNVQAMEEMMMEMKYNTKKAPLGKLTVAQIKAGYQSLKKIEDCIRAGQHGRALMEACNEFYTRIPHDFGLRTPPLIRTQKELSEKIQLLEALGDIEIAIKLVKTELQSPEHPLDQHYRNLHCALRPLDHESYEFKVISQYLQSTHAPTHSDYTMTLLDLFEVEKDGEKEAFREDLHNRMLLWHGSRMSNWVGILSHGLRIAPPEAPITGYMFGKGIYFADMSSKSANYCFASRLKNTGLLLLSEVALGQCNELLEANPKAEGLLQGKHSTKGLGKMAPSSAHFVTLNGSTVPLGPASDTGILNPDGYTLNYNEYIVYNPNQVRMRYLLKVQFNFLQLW
procedure.summary: PARP fluorescence anisotropy binding assay, PARP2
quantity.measured: IC50
Please state the number and follow it with the unit.

Fill blank: measured IC50 of the molecule "CCc1cc2ncc(CN3CCN(c4ccc(C(=O)NC)nc4C)CC3)cc2[nH]c1=O" is ____.
3 µM
